Molecular target: α-1A adrenoceptor (dog prostate) (Canis lupus)
Sequence (A0A8I3NK63 1-466): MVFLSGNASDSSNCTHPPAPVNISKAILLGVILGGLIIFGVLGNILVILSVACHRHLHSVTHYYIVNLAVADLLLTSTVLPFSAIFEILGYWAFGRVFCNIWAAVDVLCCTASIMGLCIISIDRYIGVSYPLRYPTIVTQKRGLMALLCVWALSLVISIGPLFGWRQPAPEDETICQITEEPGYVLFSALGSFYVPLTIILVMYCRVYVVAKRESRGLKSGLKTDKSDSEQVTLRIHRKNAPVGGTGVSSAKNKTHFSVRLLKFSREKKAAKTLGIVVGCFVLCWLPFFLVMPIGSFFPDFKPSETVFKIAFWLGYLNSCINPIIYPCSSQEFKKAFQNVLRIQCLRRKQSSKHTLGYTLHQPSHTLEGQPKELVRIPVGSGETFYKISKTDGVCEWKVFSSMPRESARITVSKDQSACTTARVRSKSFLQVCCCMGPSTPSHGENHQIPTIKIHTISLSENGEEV
Assay: Functional antagonism: phenylephrine (PE)-induced contraction of canine prostate strips
Type: cell-based
Details: Table 2b; vs phenylephrine; Schild plot
Counter-ions that a name gives are not always drawn.
Would you kindly list pA2 Dog Prostate [α-1A] for each of these compounds?
One number for each entry.

Provide pA2 Dog Prostate [α-1A] for all items below, preserving their order.
1. COc1cccc2c1CC[C@H]1CN(CCn3c(=O)[nH]c4c(sc5cc(Cl)ccc54)c3=O)C[C@@H]21 [Example 57, hydrochloride]
2. COc1cccc2c1CC[C@H]1CN(CCn3c(=O)[nH]c4c(sc5cccc(Cl)c54)c3=O)C[C@@H]21 [Example 72, hydrochloride]
3. COc1cccc2c1CC[C@H]1CN(CCn3c(=O)[nH]c4c5c(sc4c3=O)CCCC5)C[C@@H]21 (relative stereo) [Example 22, hydrochloride]
4. COc1cccc2c1CC[C@H]1CN(CCn3c(=O)[nH]c4c(sc5ccc(C(N)=O)cc54)c3=O)C[C@@H]21 [Example 46]
5. COc1cccc2c1CC[C@H]1CN(CCn3c(=O)[nH]c4c(ccc5ncccc54)c3=O)C[C@@H]21 [Example 82, hydrochloride]

1: 7.43; 2: 8.38; 3: 8.32; 4: 9.61; 5: 9.09

Provide pA2 Dog Prostate [α-1A] for all items below, preserving their order.
1. COc1cccc2c1CC[C@H]1CN(CCn3c(=O)[nH]c4c(sc5nc(-c6ccccc6)cnc54)c3=O)C[C@@H]21 [Example 91, hydrochloride]
2. COc1cccc2c1CC[C@H]1CN(CCn3c(=O)[nH]c4c(sc5cc(C(F)(F)F)ccc54)c3=O)C[C@@H]21 [Example 32, hydrochloride]

6.66
7.46

Provide pA2 Dog Prostate [α-1A] for all items below, preserving their order.
1. COc1cccc2c1CC[C@H]1CN(CCn3c(=O)[nH]c4c(sc5ccc(C#N)cc54)c3=O)C[C@@H]21 [Example 43, hydrochloride]
2. COc1cccc2c1[C@@H]1CN(CCCn3c(=O)[nH]c4c(sc5ccccc54)c3=O)C[C@@H]1CC2 (relative stereo) [Example 6, hydrochloride]
3. COc1cccc2c1[C@@H]1CN(CCn3c(=O)[nH]c4c(sc5ccccc54)c3=O)C[C@H]1CC2 (relative stereo) [Example 2, hydrochloride]
4. COc1cccc2c1CC[C@H]1CN(CCn3c(=O)[nH]c4c(sc5nc(C)cnc54)c3=O)C[C@@H]21 [Example 92, hydrochloride]
5. COc1cccc2c1CC[C@H]1CN(CCn3c(=O)[nH]c4c(sc5ccc(C(=O)N(C)C)cc54)c3=O)C[C@@H]21 [Example 45, hydrochloride]

1. 8.44
2. 6.91
3. 7.81
4. 9.1
5. 9.48

Can you look up the measured pA2 Dog Prostate [α-1A] of COc1cccc2c1CC[C@H]1CN(CCn3c(=O)[nH]c4c(sc5ncncc54)c3=O)C[C@@H]21 [Example 40] for me?
9.72
